Origin of values: patent US20230139171A1

Each entry below carries its recorded pIC50.
- Assayed target: human TLR7 (Homo sapiens)
- Construct: host or cells: HEK-Blue cells
- Sequence (Q9NYK1 27-1049): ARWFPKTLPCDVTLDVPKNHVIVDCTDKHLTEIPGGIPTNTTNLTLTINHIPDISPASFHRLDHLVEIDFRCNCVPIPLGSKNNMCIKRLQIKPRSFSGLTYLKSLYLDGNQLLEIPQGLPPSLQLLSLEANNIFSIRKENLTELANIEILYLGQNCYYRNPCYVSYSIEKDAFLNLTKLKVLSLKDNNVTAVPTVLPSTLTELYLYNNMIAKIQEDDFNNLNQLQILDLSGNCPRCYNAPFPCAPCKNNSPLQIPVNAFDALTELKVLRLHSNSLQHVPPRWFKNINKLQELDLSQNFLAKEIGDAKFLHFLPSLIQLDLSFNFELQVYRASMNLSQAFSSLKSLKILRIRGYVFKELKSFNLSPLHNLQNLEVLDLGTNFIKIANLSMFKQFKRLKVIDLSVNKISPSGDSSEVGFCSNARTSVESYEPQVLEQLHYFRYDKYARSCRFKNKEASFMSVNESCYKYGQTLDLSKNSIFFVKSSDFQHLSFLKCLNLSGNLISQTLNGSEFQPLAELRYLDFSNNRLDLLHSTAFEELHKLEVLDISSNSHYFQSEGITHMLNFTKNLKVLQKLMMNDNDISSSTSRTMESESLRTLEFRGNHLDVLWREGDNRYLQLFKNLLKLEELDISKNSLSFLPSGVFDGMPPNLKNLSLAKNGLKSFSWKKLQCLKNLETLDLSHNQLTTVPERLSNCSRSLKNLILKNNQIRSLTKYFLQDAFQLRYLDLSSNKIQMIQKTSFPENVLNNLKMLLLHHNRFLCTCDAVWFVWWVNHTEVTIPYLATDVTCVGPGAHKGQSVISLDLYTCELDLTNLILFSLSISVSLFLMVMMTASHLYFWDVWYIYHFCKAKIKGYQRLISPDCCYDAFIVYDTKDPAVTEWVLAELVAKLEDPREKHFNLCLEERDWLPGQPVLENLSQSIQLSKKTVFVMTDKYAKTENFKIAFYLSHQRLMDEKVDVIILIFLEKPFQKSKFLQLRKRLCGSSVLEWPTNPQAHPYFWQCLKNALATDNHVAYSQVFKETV
- Protocol text: TLR7 inhibition reporter assay (HEK-Blue cells, SEAP reporter, gardiquimod stimulation)
- Format: cell-based
- Condition info: HEK-Blue cells overexpressing human TLR7, SEAP reporter, gardiquimod 7.5 μM; read-out: TLR7 IC50
// returns pIC50 (minus log10 of molar concentration), number only

COc1cc(-c2[nH]c3sc(C4CCC(NC5(C)COC5)CC4)nc3c2C(C)C)cn2ncnc12 (single isomer, unassigned) [Example 71] ... 8.16
Cc1c(-c2[nH]c3sc(C4CCC(NCC(C)(C)C)CC4)nc3c2C(C)C)cn2ncnc2c1C (single isomer, unassigned) ... 8.30
Cc1c(-c2[nH]c3sc(C(=O)N4CCS(=O)(=O)CC4)nc3c2C(C)C)cn2ncnc2c1C ... 7.09
Cc1c(-c2[nH]c3sc(N4CCN(C5CCOCC5)C[C@H]4C)nc3c2C(C)C)cn2ncnc2c1C ... 8.21
Cc1c(-c2[nH]c3sc(C4CCC(NC5COC5)CC4)nc3c2C(C)C)cn(C)c(=O)c1C (single isomer, unassigned) [Example 241] ... 8.09
COc1cc(-c2[nH]c3sc(C4CCN(C5COC5)CC4)nc3c2C(C)C)cn2ncnc12 ... 8.42

Field: next compound
query: Quick one: give measured pIC50 for "Cc1c(-c2[nH]c3sc(N4CCN(C5COC5)C[C@H]4C)nc3c2C(C)C)cn2ncnc2c1C"
result: 7.92
